tested on: A427 cells; assay: Cytotoxicity assay in A427 cell line (resazurin); assay type: cell-based; details: Homo sapiens, A-427; A427 lung epithelial cell line, 72 hr, inhibition of proliferation
Measured parameter: pIC50
Please keep in mind that pIC50 is minus log10 of the molar concentration; only the number is needed.

{"Compound": "CC(C)n1c(=O)c2cnc(Nc3ccc4c(c3)CNCC4)nc2n1-c1cccc(C2(C#N)CC2)n1 [1.44]", "Readout number": 6.05}
{"Compound": "CC(C)n1c(=O)c2cnc(Nc3ccc4c(c3)CCNC4)nc2n1-c1cccc(C2(C#N)CC2)n1 [1.43]", "Readout number": 5.83}
{"Compound": "CCn1c(=O)c2cnc(Nc3ccc4c(c3)CCNC4(C)C)nc2n1-c1ccnc(C2(C#N)CC2)c1 [1.63]", "Readout number": 4.77}

Input: What value of pIC50 has been reported for the following compound? CC(C)n1c(=O)c2cnc(Nc3ccc4c(c3)CCNC4(C)C)nc2n1-c1ccc(F)c(C(C)(C)O)n1 [1.251]
Output: 4.91

Input: What value of pIC50 has been reported for the following compound? CC(C)n1c(=O)c2cnc(Nc3ccc4c(c3)CCNC4)nc2n1-c1csc(C2CC2)n1 [1.464]
Output: 4.61

Input: What value of pIC50 has been reported for the following compound? CC(C)(F)c1nc(-n2c3nc(Nc4ccc5c(c4)CCNC5)ncc3c(=O)n2C2CC2)ccc1F [1.2]
Output: 5.47

Input: What value of pIC50 has been reported for the following compound? CCn1c(=O)c2cnc(Nc3ccc4c(c3)CNCC4)nc2n1-c1cccc(C2(CF)CC2)n1 [1.86]
Output: 6.16

Input: What value of pIC50 has been reported for the following compound? CCn1c(=O)c2cnc(Nc3ccc4c(c3)CCNC4)nc2n1-c1ccc(F)c(C(C)(C)O)n1 [1.261]
Output: 6.05

* * *

List of pIC50 tested on PKMYT1 kinase (Homo sapiens (Human)).
Sequence (Q99640 whole entry): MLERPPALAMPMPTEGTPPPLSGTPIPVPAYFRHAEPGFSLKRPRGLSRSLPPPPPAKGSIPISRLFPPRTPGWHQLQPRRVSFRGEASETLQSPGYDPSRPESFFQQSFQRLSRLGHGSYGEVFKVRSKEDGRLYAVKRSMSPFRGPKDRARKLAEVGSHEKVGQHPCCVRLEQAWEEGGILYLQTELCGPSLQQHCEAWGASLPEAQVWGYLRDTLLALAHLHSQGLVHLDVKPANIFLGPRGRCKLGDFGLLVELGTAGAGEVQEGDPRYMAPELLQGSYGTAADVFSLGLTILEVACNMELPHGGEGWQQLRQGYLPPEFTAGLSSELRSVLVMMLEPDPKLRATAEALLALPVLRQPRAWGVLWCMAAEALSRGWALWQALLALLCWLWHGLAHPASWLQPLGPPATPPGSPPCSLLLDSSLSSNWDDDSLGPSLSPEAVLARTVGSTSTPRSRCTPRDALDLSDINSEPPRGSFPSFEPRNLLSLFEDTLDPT
Please keep in mind that pIC50 is minus log10 of the molar concentration; only the number is needed.

The examples below pair each entry with its known result.
{"Cpd smiles": "CC(C)(F)c1nc(-n2c3nc(Nc4ccc5c(c4)CCNC5(C)C)ncc3c(=O)n2C2CC2)ccc1F", "System name": "PKMYT1 kinase (Homo sapiens (Human))", "pIC50": 5.26}
{"Cpd smiles": "CC(C)n1c(=O)c2cnc(Nc3ccc4c(c3)CNCC4)nc2n1-c1nc(C(C)(C)C#N)ccc1F", "System name": "PKMYT1 kinase (Homo sapiens (Human))", "pIC50": 5.13}
{"Cpd smiles": "CC(C)n1c(=O)c2cnc(Nc3ccc4c(c3)CCNC4(C)C)nc2n1-c1cccc(C2(C#N)CC2)n1", "System name": "PKMYT1 kinase (Homo sapiens (Human))", "pIC50": 5.81}

Now look at this one.
Input: Lab request: please report pIC50 under test system PKMYT1 kinase (Homo sapiens (Human)) for `CC(C)n1c(=O)c2cnc(Nc3ccc4c(c3)CCNC4)nc2n1-c1cccc(C2(CF)CC2)n1`
Output: 5.16

* * *

We begin with a simple list: items and their reported IC50.
tested on: phospho-CDC2 in A427 cells; assay: Phospho-CDC2 (Tyr15) sandwich ELISA in A427 cells; format: cell-based; settings: Homo sapiens, A-427
Quick note: give the figure in nM, leave out the unit.

{"Molecule": "CCn1c(=O)c2cnc(Nc3ccc4c(c3)CNCC4)nc2n1-c1cccc(C2(C#N)CC2)n1 [1.38]", "Measured parameter": "IC50", "Unit string": "nM", "Readout number": 176}
{"Molecule": "CC(C)(F)c1nc(-n2c3nc(Nc4ccc5c(c4)CCNC5)ncc3c(=O)n2C2CC2)ccc1F [1.2]", "Measured parameter": "IC50", "Unit string": "nM", "Readout number": 952}
{"Molecule": "CC(C)n1c(=O)c2cnc(Nc3ccc4c(c3)CCNC4(C)C)nc2n1-c1cccc(C2(C#N)CC2)n1 [1.45]", "Measured parameter": "IC50", "Unit string": "nM", "Readout number": 66}
{"Molecule": "CC(C)n1c(=O)c2cnc(Nc3ccc4c(c3)CCNC4)nc2n1-c1ccc(F)c(C(C)(C)F)n1 [1.1]", "Measured parameter": "IC50", "Unit string": "nM", "Readout number": 339}
{"Molecule": "CC(C)n1c(=O)c2cnc(Nc3ccc4c(c3)CCNC4)nc2n1-c1cccc(C2(C#N)CC2)n1 [1.43]", "Measured parameter": "IC50", "Unit string": "nM", "Readout number": 320}

Now look at this one.
Input: What value of IC50 has been reported for the following molecule? CC(C)n1c(=O)c2cnc(Nc3ccc4c(c3)CCNC4)nc2n1-c1ccc(F)c(C(C)(C)O)n1 [1.249]
Output: 230

* * *

System: A427 cells
Test: Cytotoxicity assay in A427 cell line (resazurin)
Type: cell-based
Settings: Homo sapiens, A-427; A427 lung epithelial cell line, 72 hr, inhibition of proliferation
Description: A427 (HTB-53; ATCC), a lung epithelial cell line, was seeded in medium (MEM, 41090101; Gibco) at a cell count of 1500 cells per 100 μL per well in a 96 well edge plate (167425; ThermoFisher). […] Fluorescence was recorded using a multimodal plate reader (Biotek Synergy Neo) at an excitation wavelength of 535 nm and emission wavelength of 590 nm to obtain relative fluorescence units. […]
Friendly reminder: IC50 below 2 µM is Y, at or above is N.

{"Molecule": "CC(C)n1c(=O)c2cnc(Nc3ccc4c(c3)CCNC4(C)C)nc2n1-c1cccc(C2(C#N)CC2)n1 [1.45]", "Group label": "N"}
{"Molecule": "CC(C)(F)c1nc(-n2c3nc(Nc4ccc5c(c4)CCNC5(C)C)ncc3c(=O)n2C2CC2)ccc1F [1.5]", "Group label": "N"}
{"Molecule": "CCn1c(=O)c2cnc(Nc3ccc4c(c3)CCNC4(C)C)nc2n1-c1cccc(C2(C#N)CC2)n1 [1.39]", "Group label": "Y"}
{"Molecule": "CC(C)n1c(=O)c2cnc(Nc3ccc4c(c3)CCNC4)nc2n1-c1ccnc(C2(C#N)CC2)c1 [1.67]", "Group label": "N"}
{"Molecule": "CCn1c(=O)c2cnc(Nc3ccc4c(c3)CNCC4)nc2n1-c1cccc(C2(C#N)CC2)n1 [1.38]", "Group label": "Y"}
{"Molecule": "CC(C)n1c(=O)c2cnc(Nc3ccc4c(c3)CCNC4)nc2n1-c1ccc(F)c(C(C)(C)F)n1 [1.1]", "Group label": "N"}
{"Molecule": "CC(C)n1c(=O)c2cnc(Nc3ccc4c(c3)CNCC4)nc2n1-c1nc(C(C)(C)C)c(Cl)s1 [1.349]", "Group label": "Y"}
{"Molecule": "CCn1c(=O)c2cnc(Nc3ccc4c(c3)CCNC43CC3)nc2n1-c1cccc(C2(C#N)CC2)n1 [1.42]", "Group label": "Y"}

Input: State whether 2 µM exceeds IC50 recorded for CCn1c(=O)c2cnc(Nc3ccc4c(c3)CCNC4)nc2n1-c1cccc(C2(C#N)CC2)n1 [1.37] .
Output: Y

Input: State whether 2 µM exceeds IC50 recorded for CC(C)n1c(=O)c2cnc(Nc3ccc4c(c3)CCNC4)nc2n1-c1nc(C(C)(C)C#N)ccc1F [1.321] .
Output: N

Input: State whether 2 µM exceeds IC50 recorded for CCn1c(=O)c2cnc(Nc3ccc4c(c3)CCNC4(C)C)nc2n1-c1nc(C(C)(C)C#N)ccc1F [1.335] .
Output: N

* * *

molecular target: WEE1 kinase enzyme (Homo sapiens (Human))
Sequence (P30291 whole entry): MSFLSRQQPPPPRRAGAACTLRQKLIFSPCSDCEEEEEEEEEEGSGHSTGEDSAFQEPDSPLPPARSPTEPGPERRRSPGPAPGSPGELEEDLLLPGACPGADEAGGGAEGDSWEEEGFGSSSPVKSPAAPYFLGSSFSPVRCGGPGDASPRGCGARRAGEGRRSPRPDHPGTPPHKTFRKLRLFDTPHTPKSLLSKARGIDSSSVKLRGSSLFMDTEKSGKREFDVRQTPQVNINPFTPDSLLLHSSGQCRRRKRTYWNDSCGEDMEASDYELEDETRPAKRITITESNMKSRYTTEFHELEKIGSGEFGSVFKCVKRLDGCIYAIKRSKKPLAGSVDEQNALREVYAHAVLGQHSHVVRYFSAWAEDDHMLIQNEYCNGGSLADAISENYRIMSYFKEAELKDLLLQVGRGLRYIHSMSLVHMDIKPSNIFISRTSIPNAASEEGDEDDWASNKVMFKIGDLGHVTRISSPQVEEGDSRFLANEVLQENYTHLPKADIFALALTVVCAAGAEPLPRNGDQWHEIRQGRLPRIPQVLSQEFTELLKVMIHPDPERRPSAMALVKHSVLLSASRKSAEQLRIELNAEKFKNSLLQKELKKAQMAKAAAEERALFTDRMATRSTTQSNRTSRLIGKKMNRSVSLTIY
We begin with a simple list: items and their reported pIC50.
Please keep in mind that pIC50 is minus log10 of the molar concentration; only the number is needed.

The examples below pair each entry with its known result.
{"Compound": "CC(C)n1c(=O)c2cnc(Nc3ccc4c(c3)CNCC4)nc2n1-c1csc(C2CC2)n1 [1.465]", "pIC50": 7.35}
{"Compound": "CCn1c(=O)c2cnc(Nc3ccc4c(c3)CCNC4(C)C)nc2n1-c1nc(C(C)(C)C#N)ccc1F [1.335]", "pIC50": 8.30}
{"Compound": "CCn1c(=O)c2cnc(Nc3ccc4c(c3)CNCC4)nc2n1-c1cccc(C2(CF)CC2)n1 [1.86]", "pIC50": 8.70}
{"Compound": "N#CC1(c2cccc(-n3c4nc(Nc5ccc6c(c5)CNCC6)ncc4c(=O)n3CC(F)(F)F)n2)CC1 [1.32]", "pIC50": 8.10}

Now look at this one.
Input: Lab request: please report pIC50 under test system WEE1 kinase enzyme (Homo sapiens (Human)) for CC(C)n1c(=O)c2cnc(Nc3ccc4c(c3)CCNC4)nc2n1-c1ccc(F)c(C(C)(C)O)n1 [1.249]
Output: 7.80

* * *

target: UniProt P30291
Friendly reminder: IC50 below 9 nM is satisfied, at or above is not satisfied.

Input: State whether 9 nM exceeds IC50 recorded for CC(C)n1c(=O)c2cnc(Nc3ccc4c(c3)CCNC4(C)C)nc2n1-c1ccc(F)c(C(C)(C)O)n1 [1.251] .
Output: satisfied

Input: State whether 9 nM exceeds IC50 recorded for CCn1c(=O)c2cnc(Nc3ccc4c(c3)CCNC4(C)C)nc2n1-c1ccnc(C2(C#N)CC2)c1 [1.63] .
Output: not satisfied

Input: State whether 9 nM exceeds IC50 recorded for CC(C)n1c(=O)c2cnc(Nc3ccc4c(c3)CNCC4)nc2n1-c1nc(C(C)(C)C)c(Cl)s1 [1.349] .
Output: not satisfied

Input: State whether 9 nM exceeds IC50 recorded for CC(C)n1c(=O)c2cnc(Nc3ccc4c(c3)CNCC43CC3)nc2n1-c1ccc(F)c(C(C)(C)O)n1 [1.254] .
Output: not satisfied

Input: State whether 9 nM exceeds IC50 recorded for CC(C)n1c(=O)c2cnc(Nc3ccc4c(c3)CCNC4)nc2n1-c1cccc(C2(CF)CC2)n1 [1.91] .
Output: satisfied

Input: State whether 9 nM exceeds IC50 recorded for CCn1c(=O)c2cnc(Nc3ccc4c(c3)CCNC43CC3)nc2n1-c1cccc(C2(C#N)CC2)n1 [1.42] .
Output: satisfied

These entries and their values trace back to patent US11332473B2.
